Consider the following molecules and their measured Inhibition readings.
target: Phosphodiesterase 4 (Rattus norvegicus) (UniProt P14270+P14646+P14644+P54748); test: In vitro inhibitory activity against phosphodiesterase 4 from rat liver at concentration of 3 uM

>  <Compound>
Cn1c(=O)n(Cc2ccccc2)c(=O)c2cc(-c3ccccc3C(F)(F)F)cnc21

>  <Inhibition, %>
53.7

$$$$
>  <Compound>
Cn1c(=O)n(Cc2ccccc2)c(=O)c2cc(-c3cccc(C(F)(F)F)c3)cnc21

>  <Inhibition, %>
37.6

$$$$
>  <Compound>
Cn1c(=O)n(Cc2ccccc2)c(=O)c2c(Cc3ccccc3)ccnc21

>  <Inhibition, %>
57.1

$$$$
>  <Compound>
CCOC(=O)c1cnc2c(c1)c(=O)n(Cc1ccccc1)c(=O)n2C

>  <Inhibition, %>
43

$$$$
>  <Compound>
Cn1c(=O)n(Cc2ccccc2)c(=O)c2cc(COc3ccccc3)cnc21

>  <Inhibition, %>
45.1

$$$$
